Entry source: patent US20230047825A1

System: Staphylococcus aureus ATCC 29213
Procedure details: microbe, parasite or virus in culture
Measurement conditions: ATCC 29213
Recorded endpoint: susceptibility category (CLSI M100 interpretive criteria)

1. CCC[C@@H]1C[C@@H](C(=O)N[C@@H]([C@H]2O[C@H](SC)[C@H](O)[C@@H](O)[C@H]2O)[C@H](C)Cl)N(C)C1
S
2. CC(=O)NC[C@H]1CN(c2ccc(N3CCOCC3)c(F)c2)C(=O)O1
S
3. CC[C@H]1OC(=O)[C@H](C)[C@@H](O[C@H]2C[C@@](C)(OC)[C@@H](O)[C@H](C)O2)[C@H](C)[C@@H](O[C@@H]2O[C@H](C)C[C@H](N(C)C)[C@H]2O)[C@](C)(O)C[C@@H](C)C(=O)[C@H](C)[C@@H](O)[C@]1(C)O
S-I
4. C[C@H]1COc2c(N3CCN(C)CC3)c(F)cc3c(=O)c(C(=O)O)cn1c23
S

* * *

Assign MIC to each entry below.
Tested on: Staphylococcus aureus ATCC 19636 (Smith)
Procedure details: microbe, parasite or virus in culture
Measurement conditions: Staphylococcus aureus, ATCC19636, 18 h, read-out: MIC, antibiotic susceptibility
Quick reminder: number only, in µg/mL, skip the unit.

## Task Quick one: MIC for C[C@H]1COc2c(N3CCN(C)CC3)c(F)cc3c(=O)c(C(=O)O)cn1c23 ?
## Result 0.125

## Task Quick one: MIC for C/C(=C\C(=O)OCCCCCCCCC(=O)O)C[C@@H]1OC[C@H](C[C@@H]2O[C@H]2[C@@H](C)[C@H](C)O)[C@@H](O)[C@H]1O ?
## Result 1

## Task Quick one: MIC for CCCCCCCCCC(=O)N[C@@H](Cc1c[nH]c2ccccc12)C(=O)N[C@H](CC(N)=O)C(=O)N[C@@H](CC(=O)O)C(=O)N[C@@H]1C(=O)NCC(=O)N[C@@H](CCCN)C(=O)N[C@@H](CC(=O)O)C(=O)N[C@H](C)C(=O)N[C@@H](CC(=O)O)C(=O)NCC(=O)N[C@H](CO)C(=O)N[C@@H]([C@H](C)CC(=O)O)C(=O)N[C@@H](CC(=O)c2ccccc2N)C(=O)O[C@@H]1C ?
## Result 0.25
